- Test system: 786-0 renal
- Method: NCI-60 one-dose screen, 48 h (100 = growth as untreated, 0 = no growth, -100 = all killed)
- Cond: 10 µM unless noted
The panel holds about 83,000 compounds, 20% with a hit somewhere; the sample as a whole holds those more often.
Measured parameter: growth (%)
The reply should contain only the number, in %.

Some molecules with known growth results, for comparison:
[
  {
    "Molecule": "COc1cc(-n2cc(-c3cc(O)c(C/C=C(\\C)CCC=C(C)C)c(O)c3)nn2)cc2c1O[C@]1(C)CC[C@@H](O)C(C)(C)[C@H]1C2",
    "growth [%]": 6.92
  },
  {
    "Molecule": "C=C(C)[C@@H]1CC[C@]2(C(=O)OC)CC[C@]3(C)[C@H](CC[C@@H]4[C@@]5(C)C/C(=C/NC(N)=S)C(=O)C(C)(C)[C@@H]5CC[C@]43C)[C@@H]12",
    "growth [%]": 108
  },
  {
    "Molecule": "Cc1nc2ncnc(Cl)c2[nH]1",
    "growth [%]": 105
  }
]

Next, consider the following molecule.
Field growth (entry COCCNC(=O)c1ccc(-c2nc3ccc4[nH]ncc4c3c3c2CCCC3)cc1 ) reads 31.7

----------
- Tested on: SNB-19 CNS
- Method: NCI-60 one-dose screen, 48 h
- Cond: 10 µM unless noted
- Procedure: Growth inhibition of the SNB-19 human tumor cell line is measured as a screen for anti-cancer activity. Cells are grown in 96 well plates and exposed to the test compound for 48 hours. Compounds are tested at a single concentration, which is 10^-5 M for most compounds. The reported endpoint is percent growth (GI% or GIPRCNT), where numbers from 0 - 100% represent growth inhibition, and numbers from -100% - 0 represent cell death. For example, a value of 40 represents 60% growth inhibition. […]
About 83,000 compounds went through this panel and 20% of them were active in at least one assay; those are over-represented in the sample as a whole. The source made the active and inactive calls. Rule for the calls: active = growth percent below 10; inactive = the rest.
I would appreciate it if you answered using one of these outcomes: t (active), f (inactive)

Give the logged outcome of this assay for the following compound: O=C(Cn1c2c(c3ccccc31)CCCC2)Nc1ccc(-c2nc3ccccc3s2)cc1
f

Give the logged outcome of this assay for the following compound: CCCCNC(=O)Oc1ccc(/C(=C(/CC)Cc2ccccc2)c2ccc(OCCN3CCCCCC3)cc2)cc1
f

----------
- Tested on: LOX IMVI melanoma
- Method: NCI-60 one-dose screen, 48 h
- Cond: 10 µM unless noted
This is part of a sample that, as a whole, favours compounds with a hit. Of some 83,000 tested, about 20% had one in any assay. Calls of active or inactive are those of the source. The calls were made as follows: active = growth percent below 10; inactive = the rest.
I would appreciate it if you answered using one of these outcomes: active, inactive

These recorded examples may help you get a feel for the data.
[
  {
    "Line notation": "Fc1ccc(-c2nn(-c3ccccc3)cc2-c2nc3ccccc3o2)cc1",
    "Class": "inactive"
  },
  {
    "Line notation": "CC(C)OC(=O)c1ccc2[nH]c(O)c(C(=Nc3ccc(N(C)C(=O)CN4CCN(C)CC4)cc3)c3ccccc3)c2c1",
    "Class": "active"
  },
  {
    "Line notation": "CCN1CCN(Cc2cn(CC(=O)Nc3ccc4c(ccn4Cc4ccccc4)c3)nn2)CC1",
    "Class": "inactive"
  },
  {
    "Line notation": "COc1cc(/C=C\\c2cc(/C=C\\c3ccc(O)c(OC)c3)n(C(=O)COc3ccc(Cl)cc3Cl)n2)ccc1O",
    "Class": "active"
  }
]

Now take the following compound into account.
Give the logged outcome of this assay for the following compound: COC(=O)c1ccc2c(c1)C(=O)c1c-2n(CCCN)c(=O)c2cc([N+](=O)[O-])ccc12
active
